Source: patent US8642590B2

Recorded log10 of Ki by entry
- target of assay: human V1a receptor (Homo sapiens)
- Construct: expressed in transfected cells; host or cells: HEK293 cells, transiently transfected; cell membranes prepared
- Sequence (P37288 whole entry): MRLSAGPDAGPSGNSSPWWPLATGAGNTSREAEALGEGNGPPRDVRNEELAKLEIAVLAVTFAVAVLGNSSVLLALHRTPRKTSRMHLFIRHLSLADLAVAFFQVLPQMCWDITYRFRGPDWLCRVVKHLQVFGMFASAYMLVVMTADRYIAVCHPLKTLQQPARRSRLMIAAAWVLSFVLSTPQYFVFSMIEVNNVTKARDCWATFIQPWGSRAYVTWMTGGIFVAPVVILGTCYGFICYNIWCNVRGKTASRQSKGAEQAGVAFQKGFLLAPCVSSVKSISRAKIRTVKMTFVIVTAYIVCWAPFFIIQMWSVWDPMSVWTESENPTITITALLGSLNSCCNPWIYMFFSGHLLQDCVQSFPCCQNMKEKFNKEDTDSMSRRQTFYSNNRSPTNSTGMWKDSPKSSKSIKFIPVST
- protocol: human V1a receptor binding study (3H-Vasopressin, SPA beads, HEK293 membranes)
- run parameters: membranes of HEK293 cells transiently transfected with human V1a receptor; 3H-Vasopressin; Ki calculated using the Cheng-Prussoff equation; read-out: pKi (hV1a) (converted)
Where a name gives a salt, the structure may show the parent alone.
Scale: decimal log of Ki, Ki in nM.

Solved entries (count: 3):
>  <molecule>
CCC(C)O[C@H]1CC[C@H](c2nnc3n2-c2ccc(Cl)cc2CN(C)C3)CC1 (mixture of isomers)

>  <log10 of Ki>
0.32

$$$$
>  <molecule>
CC(CO)O[C@H]1CC[C@H](c2nnc3n2-c2ccc(Cl)cc2CN(C(=O)OC(C)(C)C)C3)CC1 (mixture of isomers)

>  <log10 of Ki>
0.43

$$$$
>  <molecule>
Clc1ccc2c(c1)CNCc1nnc([C@H]3CC[C@H](OC4CCOCC4)CC3)n1-2 [Example 61, hydrochloride]

>  <log10 of Ki>
2.65

$$$$

Exercise: Any idea what its log10 of Ki is? The molecule is CC[C@@H](C)O[C@H]1CC[C@H](c2nnc3n2-c2ccc(Cl)cc2CN(C)C3)CC1 (single isomer, unassigned)
Solution: 0.20

Exercise: Any idea what its log10 of Ki is? The molecule is CC(C)(C)OC(=O)N1Cc2cc(Cl)ccc2-n2c(nnc2[C@H]2CC[C@H](OC3CCOCC3)CC2)C1
Solution: 0.75

Exercise: Any idea what its log10 of Ki is? The molecule is CCO[C@H]1CC[C@H](c2nnc3n2-c2ccc(Cl)cc2CN(C)C3)CC1
Solution: 0.83
